Test system: MDA-MB-436
PROTOCOL SUMMARY: normalised response (% of control), CellTiter-Glo; higher = more viable cells (100 = DMSO, 0 = benzethonium chloride kill control)
COND: incubation time: 72 h

MOLECULE: COC1=CC(c2cc3ccccc3[nH]2)=N/C1=C\c1[nH]c(C)cc1C [Obatoclax] (10000 nM)
TARGET ENTITY: MDA-MB-436
normalised response / %: 81.6

MOLECULE: CCCC(CCC)C(=O)O [Valproic acid] (1000000 nM)
TARGET ENTITY: MDA-MB-436
normalised response / %: 100

MOLECULE: Cn1cnc2c(F)c(Nc3ccc(Br)cc3F)c(C(=O)NOCCO)cc21 [MEK-162] (1000 nM)
TARGET ENTITY: MDA-MB-436
normalised response / %: 94

----------
Tested on: CAL-148
PROTOCOL SUMMARY: normalised viability (% of control), CellTiter-Blue; higher = more viable cells (about 100 = DMSO control)
COND: incubation time: 72 h
Documented normalised viability across a set of compounds

COMPOUND: COc1ncc(-c2ccc3nccc(-c4ccnnc4)c3c2)cc1NS(=O)(=O)c1ccc(F)cc1F (1000 nM)
normalised viability: 2.42%

COMPOUND: c1ccc(C2CN3CCSC3=N2)cc1 (stereo unspecified) [Tetramisole] (10000 nM)
normalised viability: 117%

COMPOUND: COC1=CC(c2cc3ccccc3[nH]2)=N/C1=C\c1[nH]c(C)cc1C [Obatoclax] (10000 nM)
normalised viability: 10.8%

COMPOUND: C#Cc1cccc(Nc2ncnc3cc(OC)c(OCCCCCCC(=O)NO)cc23)c1 [CUDC-101] (10000 nM)
normalised viability: 0.77%

COMPOUND: O=c1[nH]c(=O)n([C@H]2C[C@H](O)[C@@H](CO)O2)cc1F [Floxuridine] (10000 nM)
normalised viability: 31.9%

COMPOUND: CC(=O)O[C@H]1C(=O)[C@@]2(C)[C@H]([C@H](OC(=O)c3ccccc3)[C@]3(O)C[C@H](OC(=O)[C@H](O)[C@@H](NC(=O)c4ccccc4)c4ccccc4)C(C)=C1C3(C)C)[C@]1(OC(C)=O)CO[C@@H]1C[C@@H]2O [Paclitaxel] (1000 nM)
normalised viability: 14.7%

COMPOUND: O=C(c1ccc(OCCN2CCCCC2)cc1)c1c(-c2ccc(O)cc2)sc2cc(O)ccc12 [Raloxifene] (10000 nM)
normalised viability: 125%

COMPOUND: CN1CCN(c2ccc3nc(-c4c(N)c5c(F)cccc5[nH]c4=O)[nH]c3c2)CC1 [Dovitinib] (10000 nM)
normalised viability: 88.5%

COMPOUND: CS(=O)(=O)OCCCCOS(C)(=O)=O [Busulfan] (100000 nM)
normalised viability: 114%

COMPOUND: O=c1[nH]cc(F)c(=O)[nH]1 [Fluorouracil] (10000 nM)
normalised viability: 55.4%

COMPOUND: CC(C)C[C@H](NC(=O)[C@H](Cc1ccccc1)NC(=O)c1cnccn1)B(O)O [Bortezomib] (1000 nM)
normalised viability: 0.38%

----------
System: HCC1937
PROTOCOL SUMMARY: normalised response (% of control), CellTiter-Glo; higher = more viable cells (100 = DMSO, 0 = benzethonium chloride kill control)
COND: incubation time: 72 h

COMPOUND: CS(=O)(=O)CCNCc1ccc(-c2ccc3ncnc(Nc4ccc(OCc5cccc(F)c5)c(Cl)c4)c3c2)o1 [Lapatinib] (1 nM)
normalised response / %: 100
//
COMPOUND: COc1c(C)cnc(Cn2cnc3c(Cl)nc(N)nc32)c1C [BIIB021] (10 nM)
normalised response / %: 105
//
COMPOUND: CC(C)C[C@H](NC(=O)[C@H](Cc1ccccc1)NC(=O)c1cnccn1)B(O)O [Bortezomib] (100 nM)
normalised response / %: 59
//
COMPOUND: CN1CCN(c2ccc3nc(-c4c(N)c5c(F)cccc5[nH]c4=O)[nH]c3c2)CC1 [Dovitinib] (10 nM)
normalised response / %: 101
//
COMPOUND: CC(=O)O[C@H]1C(=O)[C@@]2(C)[C@H]([C@H](OC(=O)c3ccccc3)[C@]3(O)C[C@H](OC(=O)[C@H](O)[C@@H](NC(=O)c4ccccc4)c4ccccc4)C(C)=C1C3(C)C)[C@]1(OC(C)=O)CO[C@@H]1C[C@@H]2O [Paclitaxel] (100 nM)
normalised response / %: 66.2
//
COMPOUND: CCCC(CCC)C(=O)O [Valproic acid] (1000 nM)
normalised response / %: 99.5
//
COMPOUND: COC(=O)C[C@](O)(CCCC(C)(C)O)C(=O)O[C@@H]1C(OC)=C[C@]23CCCN2CCc2cc4c(cc2[C@H]13)OCO4 [Omacetaxine] (1000 nM)
normalised response / %: 25.8
//
COMPOUND: COC1=CC(c2cc3ccccc3[nH]2)=N/C1=C\c1[nH]c(C)cc1C [Obatoclax] (10 nM)
normalised response / %: 94.6
//
COMPOUND: CC(C)(C)c1cc(NC(=O)Nc2ccc(-c3cn4c(n3)sc3cc(OCCN5CCOCC5)ccc34)cc2)no1 [Quizartinib] (1 nM)
normalised response / %: 101
//
COMPOUND: CS(=O)(=O)OCCCCOS(C)(=O)=O [Busulfan] (100 nM)
normalised response / %: 97.9
//
COMPOUND: O=c1[nH]c(=O)n([C@H]2C[C@H](O)[C@@H](CO)O2)cc1F [Floxuridine] (10 nM)
normalised response / %: 98.2
//
COMPOUND: COC(=O)C[C@](O)(CCCC(C)(C)O)C(=O)O[C@@H]1C(OC)=C[C@]23CCCN2CCc2cc4c(cc2[C@H]13)OCO4 [Omacetaxine] (1 nM)
normalised response / %: 98.3
//
COMPOUND: COC1=C2C[C@@H](C)C[C@H](OC)[C@H](O)[C@@H](C)/C=C(\C)[C@H](OC(N)=O)[C@@H](OC)/C=C\C=C(/C)C(=O)NC(=CC1=O)C2=O [Geldanamycin] (1000 nM)
normalised response / %: 89.8
//
COMPOUND: COc1cc(Nc2ncc(F)c(Nc3ccc4c(n3)NC(=O)C(C)(C)O4)n2)cc(OC)c1OC [Tamatinib] (1 nM)
normalised response / %: 98.5

// data source = the supplement of paper PMC4862054
